Reported IC50, inhibition of 1 nM hFGF21 is given for each of the following binders.
target: human KLB and human FGFR1c co-expressed on HEK293/hKLB/hFGFR1c/SRE-luc cells (human, UniProt Q86Z14 1-1044; P11362 22-822); assay: cell-based or functional assay
Sequence (Q86Z14 whole entry, chain 1 of 2): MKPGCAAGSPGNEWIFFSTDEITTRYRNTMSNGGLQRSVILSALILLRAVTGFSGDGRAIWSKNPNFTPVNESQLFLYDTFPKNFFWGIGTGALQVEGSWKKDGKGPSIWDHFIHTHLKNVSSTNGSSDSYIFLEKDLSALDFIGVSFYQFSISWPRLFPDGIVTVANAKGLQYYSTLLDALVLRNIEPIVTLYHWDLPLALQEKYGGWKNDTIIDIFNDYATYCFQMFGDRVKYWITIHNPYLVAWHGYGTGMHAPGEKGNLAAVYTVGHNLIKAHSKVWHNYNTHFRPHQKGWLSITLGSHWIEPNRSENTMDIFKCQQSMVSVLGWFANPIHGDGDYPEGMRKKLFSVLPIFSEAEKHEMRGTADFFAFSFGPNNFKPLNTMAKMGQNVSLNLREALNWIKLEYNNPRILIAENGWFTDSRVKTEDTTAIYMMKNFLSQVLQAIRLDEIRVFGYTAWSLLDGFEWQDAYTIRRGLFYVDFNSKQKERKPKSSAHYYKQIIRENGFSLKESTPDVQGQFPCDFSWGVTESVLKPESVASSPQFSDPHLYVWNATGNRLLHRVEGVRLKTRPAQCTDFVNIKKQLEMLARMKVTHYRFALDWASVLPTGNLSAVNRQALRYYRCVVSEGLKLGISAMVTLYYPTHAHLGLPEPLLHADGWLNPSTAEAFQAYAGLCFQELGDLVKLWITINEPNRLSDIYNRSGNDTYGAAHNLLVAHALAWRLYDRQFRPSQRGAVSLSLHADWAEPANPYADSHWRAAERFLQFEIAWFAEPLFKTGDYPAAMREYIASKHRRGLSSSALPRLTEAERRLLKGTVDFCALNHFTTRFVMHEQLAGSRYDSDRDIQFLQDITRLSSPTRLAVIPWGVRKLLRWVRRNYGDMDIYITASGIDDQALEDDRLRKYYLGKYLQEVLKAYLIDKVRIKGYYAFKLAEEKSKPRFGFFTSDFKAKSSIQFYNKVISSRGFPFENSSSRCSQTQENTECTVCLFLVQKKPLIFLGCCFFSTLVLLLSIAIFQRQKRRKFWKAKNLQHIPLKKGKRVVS
Sequence (P11362 other isoform, or with tags, fused parts or gaps limits assumed, chain 2 of 2): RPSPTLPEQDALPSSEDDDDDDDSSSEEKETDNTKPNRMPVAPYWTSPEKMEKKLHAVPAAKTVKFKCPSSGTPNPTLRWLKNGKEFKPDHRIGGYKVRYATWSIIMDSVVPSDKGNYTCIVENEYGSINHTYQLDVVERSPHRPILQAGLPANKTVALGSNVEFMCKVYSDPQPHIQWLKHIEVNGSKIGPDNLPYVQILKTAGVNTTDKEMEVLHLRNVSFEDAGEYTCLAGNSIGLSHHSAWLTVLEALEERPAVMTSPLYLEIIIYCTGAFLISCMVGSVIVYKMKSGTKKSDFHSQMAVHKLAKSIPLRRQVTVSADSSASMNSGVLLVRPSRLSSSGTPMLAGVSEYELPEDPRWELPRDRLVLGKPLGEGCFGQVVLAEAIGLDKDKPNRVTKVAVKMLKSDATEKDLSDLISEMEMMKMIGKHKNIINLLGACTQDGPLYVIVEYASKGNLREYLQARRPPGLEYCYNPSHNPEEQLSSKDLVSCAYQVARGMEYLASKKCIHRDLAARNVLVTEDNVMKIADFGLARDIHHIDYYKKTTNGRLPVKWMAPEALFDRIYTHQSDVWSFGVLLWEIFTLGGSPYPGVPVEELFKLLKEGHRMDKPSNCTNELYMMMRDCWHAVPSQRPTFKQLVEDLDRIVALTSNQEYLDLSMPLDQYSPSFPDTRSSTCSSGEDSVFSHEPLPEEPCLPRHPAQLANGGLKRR
I only need the number, in nM, no unit after it.

{"binder": "H1H8898P (antibody, V domains shown, H1H Fc prefix (human Fc)) VH: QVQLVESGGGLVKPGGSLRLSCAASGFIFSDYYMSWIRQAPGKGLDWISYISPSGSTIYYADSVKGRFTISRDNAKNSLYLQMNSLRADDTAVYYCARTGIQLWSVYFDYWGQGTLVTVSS VL: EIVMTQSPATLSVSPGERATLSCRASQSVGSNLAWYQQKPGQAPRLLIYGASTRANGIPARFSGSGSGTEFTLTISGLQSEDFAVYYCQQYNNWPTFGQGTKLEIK", "measure-unit": "nM", "IC50, inhibition of 1 nM hFGF21": 2}
{"binder": "H4H8837P (antibody, V domains shown, human IgG4 Fc (H4H prefix)) VH: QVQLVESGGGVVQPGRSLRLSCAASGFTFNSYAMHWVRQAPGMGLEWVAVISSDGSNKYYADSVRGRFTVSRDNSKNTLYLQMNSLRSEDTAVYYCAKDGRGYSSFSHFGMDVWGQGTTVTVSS VL: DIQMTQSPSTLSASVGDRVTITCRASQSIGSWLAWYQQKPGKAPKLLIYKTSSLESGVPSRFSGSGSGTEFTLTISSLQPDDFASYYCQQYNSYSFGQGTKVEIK", "measure-unit": "nM", "IC50, inhibition of 1 nM hFGF21": 0.08}
{"binder": "H2aM8093N (antibody, V domains shown, mouse IgG2 Fc (H2aM prefix)) VH: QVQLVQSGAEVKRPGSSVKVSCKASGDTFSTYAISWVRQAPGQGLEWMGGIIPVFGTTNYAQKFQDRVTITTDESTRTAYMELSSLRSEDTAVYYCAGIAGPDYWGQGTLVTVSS VL: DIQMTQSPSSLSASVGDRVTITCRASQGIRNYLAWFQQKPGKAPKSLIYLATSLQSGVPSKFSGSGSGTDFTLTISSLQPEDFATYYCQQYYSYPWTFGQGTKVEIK", "measure-unit": "nM", "IC50, inhibition of 1 nM hFGF21": 0.067}
{"binder": "H4H8881P (antibody, V domains shown, human IgG4 Fc (H4H prefix)) VH: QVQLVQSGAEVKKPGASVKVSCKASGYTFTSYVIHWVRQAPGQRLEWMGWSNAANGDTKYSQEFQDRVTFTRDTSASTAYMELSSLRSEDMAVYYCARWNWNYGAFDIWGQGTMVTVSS VL: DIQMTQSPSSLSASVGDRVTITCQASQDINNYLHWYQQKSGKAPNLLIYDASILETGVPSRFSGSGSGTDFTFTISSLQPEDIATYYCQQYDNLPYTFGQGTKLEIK", "measure-unit": "nM", "IC50, inhibition of 1 nM hFGF21": 0.067}
{"binder": "H4H8878P (antibody, V domains shown, human IgG4 Fc (H4H prefix)) VH: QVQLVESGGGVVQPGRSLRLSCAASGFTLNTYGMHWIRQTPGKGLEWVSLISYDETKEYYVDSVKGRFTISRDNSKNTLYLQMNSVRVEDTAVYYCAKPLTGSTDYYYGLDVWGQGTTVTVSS VL: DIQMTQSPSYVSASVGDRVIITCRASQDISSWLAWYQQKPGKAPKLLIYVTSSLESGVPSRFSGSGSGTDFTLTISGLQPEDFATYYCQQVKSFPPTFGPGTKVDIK", "measure-unit": "nM", "IC50, inhibition of 1 nM hFGF21": 0.23}

In: Would you kindly share the measured IC50, inhibition of 1 nM hFGF21 for H2aM8098N (antibody, V domains shown, mouse IgG2 Fc (H2aM prefix)) VH: QLQLQESGPGLVKPSETLSLTCTVSGGSISSSNYYWDWIRQTPEKGLEWIGSIHYSGTSYYNPSLKSRVTISVDTSKNQFSLKLRSVTAADAAVYYCARQTSVYWYFDIWGHGTLVTVST VL: EIVLTQSPGTLSLSPGEGATLSCRASQSVRNNYLAWYQQKPGQAPRLLIYGASSRAIGIPDRFSGSGSGTDFTLTISRLEPKDFVVYYCQQYGGSLFTFGPGTKVDIK ?
Out: 15

In: Would you kindly share the measured IC50, inhibition of 1 nM hFGF21 for H4H8880P (antibody, V domains shown, human IgG4 Fc (H4H prefix)) VH: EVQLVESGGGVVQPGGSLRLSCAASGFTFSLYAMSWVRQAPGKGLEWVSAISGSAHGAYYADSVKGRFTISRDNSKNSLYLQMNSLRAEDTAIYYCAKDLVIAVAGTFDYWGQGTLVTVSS VL: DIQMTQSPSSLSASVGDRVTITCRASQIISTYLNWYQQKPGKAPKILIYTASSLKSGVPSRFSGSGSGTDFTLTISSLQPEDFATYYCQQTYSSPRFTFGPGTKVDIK ?
Out: 0.15
